B1: unnamed (parent)
chain 1: MAAQNEQRPERIKTTPYLEGDVLSSDSGPLLSVFALQEIMQKVRQVQADYMTATREVDFTVPDVQQILDDIKALAAAQVYKIVKVPSTSFRHIVTQSRDRVLRVDTYYEEMSQVGDVITEDEPEKFYSTIIKKVRFIRGKGSFILHDIPARDHRGMEVAEPEVLGVEFKNVLPVLTAEHRAMIQNALDGSIIENGNVATRDVDVFIGACSEPFYRIYNRFQGYIEAVQLQELRNSIGWLERLGQRKRITYSQEVLTDFRRQDMIWVLALQLPVNPQVVWDVPRSSIANLIMNIATCLPTGEYIAPNPRISSITLTQRITTTGPFAILTGSTPTAQQLNDVRKIYLALMFPGQIILDLKIDPGERMDPAVRMVAGVVGHLLFTAGGRFTNLTQNMARQLDIALNDYLLYMYNTRVQVNYGPTGEPLDFQIGRNQYDCNVFRADFATGTGYNGWATIDVEYRDPAPYVHAQRYIRYCGIDSRELINPTTYGIGMTYHCYNEMLRMLVAAGKDSEAAYFRSMLPFHMVRFARINQIINEDLHSVFSLPDDMFNALLPDLIAGAHQNADPVVLDVSWISLWFAFNRSFEPTHRNEMLEIAPLIESVYASELSVMKVDMRHLSLMQRRFPDVLIQARPSHFWKAVLNDSPEAVKAVMNLSHSHNFINIRDMMRWVLLPSLQPSLKLVLEEEAWAAANDFEDLMLTDQVYMHRDMLPEPRLDDIERFRQEGFYYTNMLEAPPEIDRVVQYTYEIARLQANMGQFRAALRRIMDDDDWIGFGGVLRTVRVKFFDARPPDDILQGLPFSYDTNEKGGLSYATIKYATETTIFYLIYNVEFSNTPDSLVLINPTYTMTKVFINKRIVERVRVGQILAVLNRRFVAYKGKMRIMDITQSLKMGTKLAAPTV
chain 2: MSAAILLAPGDVIKRSSEELKQRQIQINLVDWMESEGGKEDKTEPKEESKAEGSKDGEGTQSESGQKEEGGKETKDADVDRRIHTAVGSGSGTKGSGERANENANRGDGKVGGGGGDADAGVGATGTNGGRWVVLTEEIARAIESKYGTKIDVYRDEVPAQIIEVERSLQKELGISREGVAEQTERLRDLRRKEKNGTHAKAVERGGRKQRKKAHGDAQREGVEEEKTSEEPARIGITIEGVMSQKKLLSMIGGVERKMAPIGARESAVMLVSNSIKDVVRATAYFTAPTGDPHWKEVAREASKKKNILAYTSTGGDVKTEFLHLIDHL

Variants of: B1
Experiment: coimmunoprecipitation (IP anti-Flag MAb), immunoblot gray-value analysis
Settings: with partner chain of the complex shown, five experiments, means ± SDs, parent: 100, read off a plot
The following variants are shown together with reported percent of parent values.

Exercise: # lookup: percent of parent of chain 2 R281A Y285A F286A
Solution: 2 % of WT

Exercise: # lookup: percent of parent of chain 2 R281A Y285A
Solution: 4 % of WT

Exercise: # lookup: percent of parent of chain 2 R281A F286A
Solution: 19 % of WT

Exercise: # lookup: percent of parent of chain 2 A282G A284G
Solution: 45 % of WT

Exercise: # lookup: percent of parent of chain 2 F286A
Solution: 57 % of WT
